- assay.target: T1, human 5T4-His protein (human, UniProt Q13641 32-355)
- T1 construct: also called recombinant 5T4 protein (human 5T4-his tag); human 5T4 protein; not shown: His tag
- T1 sequence (looked up): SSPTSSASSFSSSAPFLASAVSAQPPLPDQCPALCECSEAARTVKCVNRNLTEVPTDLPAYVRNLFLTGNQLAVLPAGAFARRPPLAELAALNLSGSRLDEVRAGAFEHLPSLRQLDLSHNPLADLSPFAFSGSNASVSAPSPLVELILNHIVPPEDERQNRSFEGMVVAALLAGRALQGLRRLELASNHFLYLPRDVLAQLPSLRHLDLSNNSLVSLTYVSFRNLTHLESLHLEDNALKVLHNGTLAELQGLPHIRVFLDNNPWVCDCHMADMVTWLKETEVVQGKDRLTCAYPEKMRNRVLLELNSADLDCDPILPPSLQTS
- assay.info: ELISA, coated antigen
readout.kind: EC50 (nM)
Numbers only, in nM.

I have 3 binders here; please give me EC50 for each one.
1. 493E10 chimeric antibody (antibody, V domains shown, chimeric mAb) VH: DVQLVESGGGLVQPGGSRKLSCAASGFTFSSFGMHWVRQAPEKGLEWVAYISSGSSTIYYADTVKGRFTISRDNPKNTLFLQMTSLRSEDTAMYYCARNRAYHREAMDYWGQGTSVTVSS VL: DIVLTQSPASLTVSLGQRATISCRASQSVSSSSYNYMHWYQQKPGQPPKLLIKSASNLESGVPARFSGSGSGTDFTLNIHPVEEEDTATYYCQHSWEIPYTFGGGTKLEIK
2. 85B10 chimeric antibody (antibody, V domains shown, chimeric mAb) VH: QVQLQQSGPELVKPGASVKISCKASGYTFTAYYVNWVKQSHGKSLEWIGDINPNNGGTNYNQKFKGKATLTVDMSSSTAYMELRSLTSEDSAVYYCAKEGPPGAMDYWGQGTSVTVSS VL: SIVLTQTPKFLLVSAGDRVPITCKASQSVSNNVAWYQQKPGQSPKLLIYYASNPYTGVPDRFTGSGYGTDFTFTITTVQAEDLAVYFCQQVYSSPFTFGGGTKLEMK
3. 449H9 chimeric antibody (antibody, V domains shown, chimeric mAb) VH: QVQLQQSGAELVRPGSSVRISCKASGYAFSNYWMNWVKQRPGQGLEWIGQIYPGDGDTNYNGKFKNKATLTTDKSSSTAYMQLSSLTSEDSAVYFCARHYDYPYYYAMDYWGQGTSVTVSS VL: DIQMTQSPSSLSASLGERVSLTCRASQDIGIALTWLQQEPDGTIKRLIYATSSLDSGVPKRFSGSRSGSDYTLTISSLESEDFVDYYCLQYIISPYTFGGGTKLEIK

Response given:
[0.28, 0.34, 0.37]
